Could you please report measured Drug uptake for the items listed next?
Tested on: Liver
Assay: Biodistribution in overnight fasted Sprague-Dawley rat liver aqueous fraction at 0.7 to 1.4 MBq, iv preincubated with POCA for 2 hrs before compound administration measured at 30 mins post treatment by Folch-type extraction method
Assay type: ADME, organism-based
Details: in vivo, 0.5 h
Please state the value followed by its unit.

Exam item: What value of Drug uptake has been reported for the following molecule? O=C(O)CCSCCCCCCCCCCCC[18F]
Marked response: 20.23%

Exam item: Now this one: O=C(O)CCSCCCC/C=C\CCCCCCCC[18F]
Marked response: 16.3%

Exam item: Subsequent entry: O=C(O)CCSCCCCCCCCCCCCCC[18F]
Marked response: 31.69%

Exam item: Continue with O=C(O)CCCCSCCCCCCCCCCCC[18F]
Marked response: 10.75%

* * *

Test system: Liver
Assay: Biodistribution in overnight fasted Sprague-Dawley rat liver organic fraction at 0.7 to 1.4 MBq, iv preincubated with POCA for 2 hrs before compound administration measured at 30 mins post treatment by Folch-type extraction method
Type: ADME, organism-based
Conditions: in vivo, 0.5 h
PROPERTY_MEASURED: Drug uptake (%)
# number only, unit % dropped from output

Exam item: Can you look up the measured Drug uptake of O=C(O)CCSCCCCCCCCCCCCCC[18F] for me?
Marked response: 51.76

Exam item: Then what about the compound O=C(O)CCCCSCCCCCCCCCCCC[18F] ?
Marked response: 54.88

Exam item: Next record, please: O=C(O)CCSCCCC/C=C\CCCCCCCC[18F]
Marked response: 58.8

Exam item: Ok, now O=C(O)CCSCCCCCCCCCCCC[18F]
Marked response: 41.68

* * *

Test system: Bone
Assay: Drug uptake in overnight fasted Sprague-Dawley rat bone at 0.7 to 1.4 MBq, iv at 120 mins
Assay type: ADME, organism-based, Bone element
Details: in vivo, 2 h
Please respond with reported Drug uptake for every item in the list.
All answers are understood in %IDKg/g, so give the number only.

Exam item: Form field: reported Drug uptake of O=C(O)CCSCCCC/C=C\CCCCCCCC[18F]
Marked response: 0.461

Exam item: Another compound: O=C(O)CCSCCCCCCCCCCCCCC[18F]
Marked response: 0.2934

Exam item: Field entry: O=C(O)CCSCCCCCCCCCCCC[18F]
Marked response: 0.3143

Exam item: Again, but for O=C(O)CCCCSCCCCCCCCCCCC[18F]
Marked response: 0.2467

* * *

Test system: Muscle tissue
Assay: Drug uptake in overnight fasted Sprague-Dawley rat muscle at 0.7 to 1.4 MBq, iv preincubated with POCA for 2 hrs before compound administration measured at 30 mins post treatment
Assay type: ADME, organism-based
Settings: in vivo, 0.5 h
So I've got a bunch of compounds here, and I need their Drug uptake values.
Give the quantity in %IDKg/g, number only.

Exam item: Name the reported Drug uptake value associated with the compound O=C(O)CCSCCCC/C=C\CCCCCCCC[18F]
Marked response: 0.0297

Exam item: And then O=C(O)CCSCCCCCCCCCCCC[18F] , what is it?
Marked response: 0.0333

Exam item: Entry O=C(O)CCSCCCCCCCCCCCCCC[18F] please
Marked response: 0.0443

Exam item: What about this compound? O=C(O)CCCCSCCCCCCCCCCCC[18F]
Marked response: 0.0639

* * *

Kindly supply the reported Drug uptake values for the records listed here.
Tested on: Liver
Assay: Biodistribution in overnight fasted Sprague-Dawley rat liver organic fraction at 0.7 to 1.4 MBq, iv at 30 mins by Folch-type extraction method
Assay type: ADME, organism-based
Conditions: in vivo, 0.5 h
API: value field is a number in %; no unit string.

Exam item: For the record O=C(O)CCSCCCCCCCCCCCC[18F] , what value of Drug uptake is listed for Liver?
Marked response: 48.25

Exam item: Moving on to O=C(O)CCCCSCCCCCCCCCCCC[18F]
Marked response: 45.61

Exam item: Could you do the same for O=C(O)CCSCCCCCCCCCCCCCC[18F] , please?
Marked response: 51.66

Exam item: Input O=C(O)CCSCCCC/C=C\CCCCCCCC[18F]
Marked response: 19.87
